Form field: normalized growth (one value per entry).
# assay comment: chemical genetic growth profiling, strain panel (AID 1159580);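 further: tested at 20 µM; growth read once vehicle control cultures reached saturation at 30 °C; 1 = growth at the plate median or of vehicle wells; lower values mean less growth of the strain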
# reported conditions: S. cerevisiae deletion strains, growth OD, locus YBL061C, strain skt5, hits give low values
Among all 5,500 compounds or so, about 2,000 (36%) were called active. About 18% were inconclusive and are not listed. The list shows a part of the results. Where a SMILES comes first, the peptide text is derived from it.
measured endpoint: normalized growth

# compound, measured endpoint, value reported
data = [
    ("COc1c2ccoc2cc2oc(=O)ccc12", "normalized growth", 0.971),
    ("NC(=NCCC[C@H](N)C(=O)O)N[N+](=O)[O-]", "normalized growth", 1.02),
    ("NC(=O)c1ncn([C@@H]2O[C@H](CO)[C@@H](O)[C@H]2O)n1", "normalized growth", 0.975),
    ("COC(=O)[C@H](Cc1ccccc1)NC(=O)[C@@H](N)CC(=O)O (H-Asp-Phe-OMe)", "normalized growth", 1.02),
    ("CC(CC(C(N)=O)(c1ccccc1)c1ccccc1)N(C)C (centres undefined)", "normalized growth", 0.983),
    ("CC(C)(C)NCC(O)c1cc(Cl)c(N)c(Cl)c1 (centres undefined)", "normalized growth", 1),
    ("C[C@@H]1CC[C@@]2(OC1)O[C@H]1CC3C4CC[C@H]5C[C@@H](O)CC[C@]5(C)C4CC[C@]3(C)[C@H]1[C@@H]2C (some centres undefined)", "normalized growth", 1),
    ("C=C1CCC2(OC1)OC1CC3C4CC=C5CC(O)CC(O)C5(C)C4CCC3(C)C1C2C (centres undefined)", "normalized growth", 1.01),
    ("COc1ccc(-c2oc3c(CC=C(C)C)c(O[C@@H]4O[C@H](CO)[C@@H](O)[C@H](O)[C@H]4O)cc(O)c3c(=O)c2O[C@@H]2O[C@@H](C)[C@H](O)[C@@H](O)[C@H]2O)cc1", "normalized growth", 1.03),
]

###

# assay comment: chemical genetic growth profiling, strain panel (AID 1159580)
# reported conditions: S. cerevisiae deletion strains, growth OD, locus YIR030C, strain dcg1, hits give low values
The campaign covered roughly 5,500 compounds. About 2,000 (36%) were called active. Another 18% or so got no clear call; they are omitted. This is one part of the list.

# compound, normalized growth
records = [
    ("NC(CSCSCC(N)C(=O)O)C(=O)O (configuration not stated)", 0.999),
    ("COc1ccc2c(c1)CCC1C2CC[C@@]2(C)C1CC[C@@H]2O (some centres not stated)", 0.902),
    ("C[C@]12CCC3c4ccc(OS(=O)(=O)O)cc4CCC3C1CC[C@H]2O (some centres not stated)", 0.992),
    ("C[C@]12CCC3c4ccc(O)cc4CCC3C1C[C@@H](O)[C@@H]2O (some centres not stated)", 0.994),
    ("CC12CCC3c4ccc(OCc5ccccc5)cc4CCC3C1C[C@@H](O)[C@@H]2O (some centres not stated)", 0.104),
    ("COc1ccc(Cl)cc1C(=O)NCCc1ccc(S(=O)(=O)NC(=O)NC2CCCCC2)cc1", 1.01),
    ("COc1ccc2c(c1)CCC1C2CCC2(C)C1C[C@@H](O)C2O (some centres not stated)", 0.991),
]

###

# assay comment: chemical genetic growth profiling, strain panel (AID 1159580);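 further: tested at 20 µM; growth read once vehicle control cultures reached saturation at 30 °C; 1 = growth at the plate median or of vehicle wells; lower values mean less growth of the strain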
# reported conditions: S. cerevisiae deletion strains, growth OD, locus YMR231W, strain pep5, hits give low values
Out of some 5,500 compounds screened, about 2,000 (36%) were called active. Another 18% or so got no clear call; they are omitted. The list shows a part of the results.

# compound, normalized growth
records = [
    ("CCCCCCCCCCCC1=C(O)C(=O)C=C(O)C1=O", 0.69),
    ("N#Cc1nn(-c2c(Cl)cc(C(F)(F)F)cc2Cl)c(N)c1S(=O)C(F)(F)F (stereo unspecified)", 0.998),
    ("NC(=O)CN1CCCC1=O", 0.997),
    ("Oc1cc2c(cc1O)C1c3ccc(O)c(O)c3OCC1(O)C2 (stereo unspecified)", 0.995),
    ("O=c1c(O)c(-c2ccc(O)c(O)c2)oc2c(O[C@@H]3O[C@H](CO)[C@H](O)[C@@H](O)[C@H]3O)c(O)cc(O)c12", 1),
    ("O=C(Cc1cccs1)NC1C(=O)N2C(C(=O)[O-])=C(C[n+]3ccccc3)CSC12 (stereo unspecified)", 0.991),
    ("CCN(Cc1ccncc1)C(=O)C(CO)c1ccccc1 (stereo unspecified)", 1.03),
    ("CC(=O)Oc1ccc2c(c1OC(C)=O)OCC1(O)Cc3c(cc(OC(C)=O)c(OC(C)=O)c3OC(C)=O)C21 (stereo unspecified)", 1.01),
    ("CCC1OC(=O)[C@H](C)C(=O)[C@H](C)[C@@H](OC2O[C@H](C)C[C@H](N(C)C)[C@H]2O)[C@](C)(OC)C2(CCCn3cnc(-c4cccnc4)c3)C[C@@H](C)C(=O)[C@H](C)[C@H]3N(C2)C(=O)O[C@]13C (stereo partly specified)", 0.98),
    ("CCCCC1C(=O)N(c2ccccc2)N(c2ccc(O)cc2)C1=O (stereo unspecified)", 1),
    ("Oc1ccc2c(c1)OCC1(O)Cc3cc(O)c(O)cc3C21 (stereo unspecified)", 1),
    ("O=c1c(O)c(-c2ccc(O)c(O)c2)oc2cc(O)cc(O)c12", 0.953),
    ("COc1ccc(Cl)cc1C(=O)NCCc1ccc(S(=O)(=O)NC(=O)NC2CCCCC2)cc1", 1.01),
    ("NS(=O)(=O)c1cc(C2(O)NC(=O)c3ccccc32)ccc1Cl (stereo unspecified)", 0.994),
    ("CC(C)(C)NCC(O)c1cc(O)cc(O)c1 (stereo unspecified)", 0.98),
    ("C=CC1C2=CCOC(=O)C2=COC1OC1OC(CO)C(O)C(O)C1O (stereo unspecified)", 1.03),
]

###

# assay comment: chemical genetic growth profiling, strain panel (AID 1159580);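 further: tested at 20 µM; growth read once vehicle control cultures reached saturation at 30 °C; 1 = growth at the plate median or of vehicle wells; lower values mean less growth of the strain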
# reported conditions: S. cerevisiae deletion strains, growth OD, locus YDL185W, strain tfp1, hits give low values
Screen size: about 5,500 compounds; about 2,000 (36%) were called active. Inconclusive results (about 18%) are left out. The list shows a part of the results.
Below, each entry is listed with its recorded normalized growth.

# compound, normalized growth
records = [
    ("CC1(C)C(=O)C=C[C@@]2(C)C1CC(=O)[C@]1(C)C2CC[C@@]2(C)[C@H](c3ccoc3)OC(=O)[C@H]3O[C@]321 (stereo partly specified)", 1.01),
    ("CC1(C)C(=O)C=C[C@@]2(C)C1C[C@@H](O)[C@]1(C)C2CC[C@@]2(C)[C@H](c3ccoc3)OC(=O)[C@H]3O[C@]321 (stereo partly specified)", 0.954),
    ("O=C(O[C@@H]1Cc2c(O)cc(O)cc2O[C@@H]1c1cc(O)c(=O)c2c(O)c(O)cc([C@H]3Oc4cc(O)cc(O)c4C[C@H]3O)c2c1)c1cc(O)c(O)c(O)c1", 0.992),
    ("O=C(O[C@@H]1Cc2c(O)cc(O)cc2O[C@@H]1c1cc(O)c(=O)c2c(O)c(O)cc([C@H]3Oc4cc(O)cc(O)c4C[C@H]3OC(=O)c3cc(O)c(O)c(O)c3)c2c1)c1cc(O)c(O)c(O)c1", 0.995),
    ("CC1(C)C(=O)C=C[C@@]2(C)C1C=C[C@]1(C)C2CC[C@@]2(C)[C@H](c3ccoc3)OC(=O)C3OC321 (stereo partly specified)", 0.998),
    ("CC1(C)C2CC(=O)[C@]3(C)C(CC[C@@]4(C)[C@H](c5ccoc5)OC(=O)C5OC543)[C@@]2(C)[C@@H](O)C[C@H]1O (stereo partly specified)", 0.996),
]

###

# assay comment: chemical genetic growth profiling, strain panel (AID 1159580);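 further: tested at 20 µM; growth read once vehicle control cultures reached saturation at 30 °C; 1 = growth at the plate median or of vehicle wells; lower values mean less growth of the strain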
# reported conditions: S. cerevisiae deletion strains, growth OD, locus YOR070C, strain gyp1, hits give low values
About 2,000 (36%) of roughly 5,500 compounds were called active. About 18% were inconclusive and are not listed. The list shows a part of the results.
Quick list: normalized growth per entry.
measured endpoint: normalized growth

# compound, value reported
measured = [
    ("CC(=O)OC(C)C[N+](C)(C)C (stereo not given)", 1),
    ("C[N+](C)(C)CC(O)CC(=O)O (stereo not given)", 0.993),
    ("CC(=O)O[C@]1(C(C)=O)CCC2C3C=C(Cl)C4=CC(=O)[C@@H]5C[C@@H]5[C@]4(C)C3CC[C@@]21C (stereo not given in full)", 1),
    ("CC(C1OC(C)(C)C(O)C1O)[C@@H]1CC[C@]2(C)C3=CCC4C(C)(C)C(=O)CC[C@]4(C)C3CC[C@@]12C (stereo not given in full)", 0.997),
    ("COC1=CC(=O)C(C(=O)c2ccccc2)=CC1=O", 0.977),
    ("COC1=CC(=O)C(O)=C/C1=C\\C=C\\c1ccccc1", 0.0623),
    ("O=c1c(O)c(-c2ccc(O)c(O)c2)oc2c(O[C@@H]3O[C@H](CO)[C@H](O)[C@@H](O)[C@H]3O)c(O)cc(O)c12", 1.01),
    ("COc1ccccc1/C=C\\C(=O)O", 1),
    ("O=c1c(O)c(-c2ccc(O)cc2O)oc2cc(O)cc(O)c12", 0.989),
    ("CCC(=O)c1c(O)cc(O)cc1O", 0.985),
    ("CC(C)c1c(O)c(-c2cc3c(c(C(C)C)c2O)CCC2C(C)(C)CCC[C@]32C)cc2c1CCC1C(C)(C)CCC[C@]21C (stereo not given in full)", 0.989),
    ("CCC(c1ccc(O)cc1)C(CC)c1ccc(O)cc1 (stereo not given)", 0.942),
    ("CC(CC(O)C1OC1(C)C)[C@@H]1CCC2(C)C3=CCC4C(C)(C)C(=O)CCC4(C)C3CC[C@@]12C (stereo not given in full)", 1.02),
    ("CC/C(=C(/CC)c1ccc(O)cc1)c1ccc(O)cc1", 0.945),
    ("C[C@@H]1O[C@@H](OC[C@H]2OC(Oc3c(-c4ccc(O)c(O)c4)oc4cc(O)cc(O)c4c3=O)[C@H](O)[C@@H](O)[C@@H]2O)[C@H](O)[C@H](O)[C@H]1O (stereo not given in full)", 0.999),
    ("CC1CC[C@@]2(OC1)O[C@H]1CC3C4CC[C@@H]5C[C@@H](O)CC[C@]5(C)C4CC[C@]3(C)[C@H]1[C@@H]2C (stereo not given in full)", 1.01),
    ("CN1C[C@H](C(=O)N[C@]2(C)O[C@@]3(O)[C@@H]4CCCN4C(=O)[C@H](Cc4ccccc4)N3C2=O)C[C@@H]2c3cccc4[nH]cc(c34)C[C@H]21", 1),
    ("COC(=O)c1c(C)cc(OC)cc1O", 0.971),
    ("O=c1c(O)c(-c2ccc(O)c(O)c2)oc2cc(O)cc(O)c12", 0.885),
    ("COC(=O)c1c(C)cc(O)cc1O", 1),
]
